Hey, just so you know, these numbers are from paper PMC9823006.

Some compounds, each annotated with its measured Fraction 2 protein content, densitometry, Ave..
Molecular target: KalbSec14 (Rattus norvegicus, UniProt P97924, N62Y/T46S)
Construct: His6 (TEV-cleavable) (N, cleaved yes); made in house; host or cells: E. coli BL21(DE3)
Experiment: Liposome flotation binding assay (Accudenz gradient, Western blot)
Conditions: mean of independent experiments; normalized to total protein recovered; test lipid 8% of liposome lipid
Enter a number only.

Completed entries (count: 3):
- compound: "CCCCCCCCCCCCC(=O)OC[C@@H](O)COP(=O)(O)OC[C@H](N)C(=O)O [LPS13:0]"
  numeric readout: 0.0069
- compound: "CCCCCCCCCCCCC(=O)OC[C@@H](O)COP(=O)(O)OC1C(O)C(O)C(O)C(O)C1O (stereo partly shown) [LPI13:0]"
  numeric readout: 0.00535
- compound: "CCCCCCCCCCCCCC(=O)OC[C@H](COP(=O)([O-])OCC[N+](C)(C)C)OC(=O)CCCCCCCCCCCCC [DMPC]"
  numeric readout: 0.0121

Then this compound:
// query Fraction 2 protein content, densitometry, Ave. value for entry CCCCCCCCCCCCCC(=O)OC[C@@H](O)COP(=O)(O)OCC(O)CO (mixture of isomers) [LPG14:0]
0.00765

* * *

Biological target: Kal^Sec14 (Rattus norvegicus, UniProt P97924, N62Y/T46S)
Construct: 19.4 kDa); His6 (TEV-cleavable) (N, cleaved yes); made in house; host or cells: E. coli BL21(DE3)
Assay: NMR chemical shift perturbation (CSP) titration, 1H-15N HSQC
Assay type: binding
Conditions: read-out: KD of FC12 binding to KalSec14, Ave; average over residue peaks 1-20
Procedure: ^1H-^15N HSQC spectra of the uniformly ^15N-labeled Kal^bSec14 and Kal^Sec14 were recorded at 25 °C on an Agilent VNMRS 800 MHz (^1H) spectrometer equipped with a cryogenic probe. ^1H-^15N HSQC spectra of the uniformly ^15N-labeled Kal^bSec14 mutants were recorded using the TopSpin software (https://www.bruker.com/en/products-and-solutions/mr/nmr-software/topspin.html) at 25 °C on a Bruker Avance NEO 600 MHz spectrometer equipped with a cryogenic probe. […]
reported property: Kd (µM)
Express the result in µM but write the number alone.

// query Kd value for entry CCCCCCCCCCCCOP(=O)([O-])OCC[N+](C)(C)C
514

* * *

Target: Kal^Sec14 (Rattus norvegicus, UniProt P97924, N62Y/T46S)
Construct: 19.4 kDa); His6 (TEV-cleavable) (N, cleaved yes); made in house; host or cells: E. coli BL21(DE3)
Assay: Liposome flotation binding assay (Accudenz gradient, Western blot)
Conditions: Suppl. Fig. 9b,c, average, biological replication ≥ 3
reported property: Densitometry values for the Western blots, Fraction 2, Ave.
Enter a number only.

Completed entries (count: 3):
- molecule: "CCCCCCCCCCCCC(=O)OC[C@@H](O)COP(=O)(O)OC1C(O)C(O)C(O)C(O)C1O (stereo partly shown)"
  numeric readout: 0.0117
- molecule: "CCCCCCCCCCCCCC(=O)OC[C@@H](O)COP(=O)(O)OCC(O)CO (mixture of isomers)"
  numeric readout: 0.0118
- molecule: "CCCCCCCCCCCCC(=O)OC[C@@H](O)COP(=O)(O)OC[C@H](N)C(=O)O"
  numeric readout: 0.00866

Then this molecule:
What value of Densitometry values for the Western blots, Fraction 2, Ave. on Kal^Sec14 (Rattus norvegicus, UniProt P97924, N62Y/T46S) does CCCCCCCCCCCCCC(=O)OC[C@H](COP(=O)([O-])OCC[N+](C)(C)C)OC(=O)CCCCCCCCCCCCC have?
0.01

* * *

Some molecules, each annotated with its measured Densitometry values for the Western blots, Fraction 3, Ave..
Molecular target: Kal^Sec14 (Rattus norvegicus, UniProt P97924, N62Y/T46S)
Construct: 19.4 kDa); His6 (TEV-cleavable) (N, cleaved yes); made in house; host or cells: E. coli BL21(DE3)
Test: Liposome flotation binding assay (Accudenz gradient, Western blot)
Conditions: Suppl. Fig. 9b,c, average, biological replication ≥ 3
Enter a number only.

Completed entries (count: 3):
- molecule: "CCCCCCCCCCCCCC(=O)OC[C@H](COP(=O)([O-])OCC[N+](C)(C)C)OC(=O)CCCCCCCCCCCCC [DMPC]"
  numeric readout: 0.11
- molecule: "CCCCCCCCCCCCC(=O)OC[C@@H](O)COP(=O)(O)OC1C(O)C(O)C(O)C(O)C1O (stereo partly shown) [LPI13:0]"
  numeric readout: 0.17
- molecule: "CCCCCCCCCCCCCC(=O)OC[C@@H](O)COP(=O)(O)OCC(O)CO (mixture of isomers) [LPG14:0]"
  numeric readout: 0.0754

Then this molecule:
// query Densitometry values for the Western blots, Fraction 3, Ave. value for entry CCCCCCCCCCCCC(=O)OC[C@@H](O)COP(=O)(O)OC[C@H](N)C(=O)O [LPS13:0]
0.09
